Hey, just so you know, these numbers are from ChEMBL document CHEMBL4513216.

# assay-summary: Toxicity liver stage against HepG2, at 10uM
# Format: cell-based
# Parameters: test concentration 10 uM, cell line HepG2-A16-CD81EGFP
# settings: human, HepG2-A16-CD81EGFP cells; read-out: INHIBITION
Quick list: cytotoxicity at 10 µM per entry.
test-readout: cytotoxicity at 10 µM (%)

{"molecule": "CCc1ccc(NC(=O)c2cnc(N3CCCC3)nc2C)cc1", "test-readout": "cytotoxicity at 10 µM", "numeric-result": 0.709}
{"molecule": "Cc1n[nH]c(C2CN(C(=O)CCOCC(F)(F)F)CCO2)n1 (stereo unspecified)", "test-readout": "cytotoxicity at 10 µM", "numeric-result": -12.9}
{"molecule": "O=C(NCCCN1CCOCC1)C1CCCN(Cc2ccco2)C1 (stereo unspecified)", "test-readout": "cytotoxicity at 10 µM", "numeric-result": -0.911}
{"molecule": "CC(C)COCC1CN(C(=O)c2cscn2)Cc2ncn(C)c21 (stereo unspecified)", "test-readout": "cytotoxicity at 10 µM", "numeric-result": -109}
{"molecule": "CNC(=O)[C@@H]1COC[C@H]2CN(C(=O)c3ccc(C)c(F)c3)C[C@H]21", "test-readout": "cytotoxicity at 10 µM", "numeric-result": 0.165}
{"molecule": "Cc1nc(C2CCCN(C(=O)c3cc(Cl)c[nH]3)C2)no1 (stereo unspecified)", "test-readout": "cytotoxicity at 10 µM", "numeric-result": -8.29}
{"molecule": "CCCOC1CCCN(Cc2nc(-c3ccc(F)cc3F)oc2C)C1 (stereo unspecified)", "test-readout": "cytotoxicity at 10 µM", "numeric-result": -51.1}
{"molecule": "CN(C)C(=O)CN1CCO[C@H]2CN(c3ccccn3)C[C@H]21", "test-readout": "cytotoxicity at 10 µM", "numeric-result": 8.16}
{"molecule": "Cc1ccc(CNCc2c(C)nn(C)c2N(C)C)cn1", "test-readout": "cytotoxicity at 10 µM", "numeric-result": 4.65}
{"molecule": "O=C(N[C@@H]1CCNC[C@H]1O)c1ccccc1OC(F)(F)C(F)F", "test-readout": "cytotoxicity at 10 µM", "numeric-result": -3.28}
{"molecule": "Cc1ccc2nc(C)c(C)c(C(=O)NCCCn3ccnn3)c2c1", "test-readout": "cytotoxicity at 10 µM", "numeric-result": 17.8}

---

# assay-summary: Toxicity liver stage against HepG2, at 10uM
# Type: cell-based
# Parameters: test concentration 10 uM, cell line HepG2-A16-CD81EGFP
# settings: human, HepG2-A16-CD81EGFP cells; read-out: INHIBITION
Quick list: cytotoxicity at 10 µM per entry.

{"compound": "CC(C)(C#N)C(=O)Nc1nccn1Cc1ccc(Br)cc1", "quantity-unit": "%", "cytotoxicity at 10 µM": -47.5}
{"compound": "O=C(NCCn1nc2ccccn2c1=O)c1cc[nH]n1", "quantity-unit": "%", "cytotoxicity at 10 µM": 3.45}
{"compound": "CNc1cc(N2CCCC2CNCc2ccc(C)o2)ncn1 (centres undefined)", "quantity-unit": "%", "cytotoxicity at 10 µM": -2.69}
{"compound": "CC(C)C[C@@H]1N[C@H](C(=O)NCC2CC2)Cc2c[nH]c3cccc1c23", "quantity-unit": "%", "cytotoxicity at 10 µM": 12.4}
{"compound": "COc1ccc(CN2CCC(O)(CN3CCCCC3)C2)c(C)c1 (centres undefined)", "quantity-unit": "%", "cytotoxicity at 10 µM": 7.5}
{"compound": "CC(=O)N1CCCCC1c1nnc2n1CCNC2 (centres undefined)", "quantity-unit": "%", "cytotoxicity at 10 µM": 14.7}
{"compound": "CN(CC(O)C1CC1)C(=O)Nc1cc(F)cc(Br)c1 (centres undefined)", "quantity-unit": "%", "cytotoxicity at 10 µM": -3.85}
{"compound": "O=C1CCC2(CCN(Cc3cc(F)ccc3Cl)CC2)CN1C1CCCC1", "quantity-unit": "%", "cytotoxicity at 10 µM": 53.1}
{"compound": "O=c1ccc(-c2ccccc2F)nn1CN1CCCCCC1", "quantity-unit": "%", "cytotoxicity at 10 µM": 5.76}
{"compound": "Cc1cc2[nH]c(O)nc2cc1NCc1ccc(F)cc1", "quantity-unit": "%", "cytotoxicity at 10 µM": 16.1}
{"compound": "CCCN1CCC(N2CCN(c3cccc(C)n3)CC2)CC1", "quantity-unit": "%", "cytotoxicity at 10 µM": -10.8}
{"compound": "Cc1nc(NC(=O)CCOCC(F)(F)F)ccc1Br", "quantity-unit": "%", "cytotoxicity at 10 µM": 6.27}
{"compound": "Cc1nnc2n1CCN(CCS(=O)(=O)c1ccc(Cl)cc1)C2", "quantity-unit": "%", "cytotoxicity at 10 µM": -4.53}
{"compound": "COCC(=O)N1CC[C@@H](N2CCOCC2)[C@@H]1Cc1ccccc1", "quantity-unit": "%", "cytotoxicity at 10 µM": -3.06}
{"compound": "O=C(CN1CCN(CC(O)C2CC2)CC1)NCc1ccccc1 (centres undefined)", "quantity-unit": "%", "cytotoxicity at 10 µM": 6.03}
{"compound": "CC(C)c1ccc(CS(=O)(=O)Cc2nc(N)nc(N(C)C)n2)cc1", "quantity-unit": "%", "cytotoxicity at 10 µM": 7.34}
{"compound": "Cc1ocnc1C(=O)N1CCN(C(=O)CC(C)C)[C@@H]2CS(=O)(=O)C[C@@H]21", "quantity-unit": "%", "cytotoxicity at 10 µM": 12.2}
{"compound": "CCOc1ccc(NC(=O)NC2CCc3nc(C)nn3C2)cc1Cl (centres undefined)", "quantity-unit": "%", "cytotoxicity at 10 µM": -3.81}
{"compound": "O=S(=O)(CCN1CCCC1Cn1cncn1)c1ccccc1 (centres undefined)", "quantity-unit": "%", "cytotoxicity at 10 µM": -21}
{"compound": "CCc1ncc2c(n1)CN(c1cc(NC3CC3)nc(N)n1)C2", "quantity-unit": "%", "cytotoxicity at 10 µM": 5.75}
{"compound": "CNCC(=O)N1CCCC(c2ccnc(Nc3cnccn3)n2)C1 (centres undefined)", "quantity-unit": "%", "cytotoxicity at 10 µM": -11.6}
{"compound": "CNCc1n[nH]c(=O)n1-c1cccc(Cl)c1Cl", "quantity-unit": "%", "cytotoxicity at 10 µM": 0.396}
{"compound": "Cc1ccc2c(c1)CCC21CCN(CCO)CC1", "quantity-unit": "%", "cytotoxicity at 10 µM": -0.675}
{"compound": "CCc1nnc(Nc2cc(C)nc(C3CN(C(=O)C(C)C)CCO3)c2)s1 (centres undefined)", "quantity-unit": "%", "cytotoxicity at 10 µM": 7.25}

---

Quick list: cytotoxicity at 10 µM per entry.
# assay-summary: Toxicity liver stage against HepG2, at 10uM
# Type: cell-based
# Set-up: test concentration 10 uM, cell line HepG2-A16-CD81EGFP
# settings: human, HepG2-A16-CD81EGFP cells; read-out: INHIBITION

{"molecule": "Cc1cccc(C)c1-n1nnnc1C1(NCc2ccco2)CCCC1", "cytotoxicity at 10 µM (%)": 12.9}
{"molecule": "Cc1n[nH]c(C)c1CCC(=O)NCC1CCCN(C2CCCC2)C1 (stereo unspecified)", "cytotoxicity at 10 µM (%)": -6.32}
{"molecule": "Cc1[nH]nc2ncc(C(=O)N3CCN(CC(C)O)CC3)cc12 (stereo unspecified)", "cytotoxicity at 10 µM (%)": -1.73}
{"molecule": "CCCS(=O)(=O)N1CCC(NC(=O)c2cc3ccccc3s2)CC1", "cytotoxicity at 10 µM (%)": 4.69}
{"molecule": "FC(F)(F)c1ccc(-c2n[nH]c3c2CN(CC2CCOC2)CC3)cc1 (stereo unspecified)", "cytotoxicity at 10 µM (%)": -52.1}
{"molecule": "c1cnc(N2CCO[C@H]3[C@H](OCCN4CCOCC4)CC[C@@H]32)nc1", "cytotoxicity at 10 µM (%)": -10.2}

---

# assay-summary: Toxicity liver stage against HepG2, at 10uM
# Assay type: cell-based
# Set-up: test concentration 10 uM, cell line HepG2-A16-CD81EGFP
# settings: human, HepG2-A16-CD81EGFP cells; read-out: INHIBITION

{"compound": "Cn1ccnc1CN1CCN2C[C@H](OCc3ccccc3)C[C@H]2C1", "cytotoxicity at 10 µM / %": 9.37}
{"compound": "CC(=O)NC1CCN(c2ncnc3c2c(C)nn3C)C1 (stereo unspecified)", "cytotoxicity at 10 µM / %": -2.78}
{"compound": "COCC(=O)N1CCCC1(C)c1nc(C)cc(O)n1 (stereo unspecified)", "cytotoxicity at 10 µM / %": -28.5}
{"compound": "COc1ccc(-c2nc(CCNc3nnc(C)c(C)c3C#N)co2)cc1", "cytotoxicity at 10 µM / %": -17.2}
{"compound": "Cc1nc(C(=O)N2CCN(S(C)(=O)=O)[C@@H]3CS(=O)(=O)C[C@@H]32)cs1", "cytotoxicity at 10 µM / %": -9.19}
{"compound": "Cc1ccc(CNC(C)(C)c2noc(C(C)(C)C)n2)o1", "cytotoxicity at 10 µM / %": -9.02}
{"compound": "COc1cc(C(=O)NCCCO)cc2occc12", "cytotoxicity at 10 µM / %": 5.47}
{"compound": "NC(=O)CN(C(=O)Cc1ccc(C(F)(F)F)cc1)C1CCCC1", "cytotoxicity at 10 µM / %": -3.41}
{"compound": "Cc1cc(NCCc2nnc(N)s2)nc(-c2ccccc2)n1", "cytotoxicity at 10 µM / %": 6.9}
{"compound": "CCc1cc(N[C@@H](CO)C(N)=O)n2nc(C)c(C)c2n1", "cytotoxicity at 10 µM / %": -13.4}
{"compound": "CCN1CCN(C(C)CNC(=O)Nc2nnc(C(C)C)s2)CC1 (stereo unspecified)", "cytotoxicity at 10 µM / %": 1.06}
